Test system: lab-adapted and clinical HIV-1 isolates
Assay: Infection assays in primary T CD4+ lymphocytes
Format: cell-based
Conditions: Human immunodeficiency virus 1, Lymphocyte, read-out: EC50 HXB2 (B)
# Lookup of reported pEC50 keyed by entry
Scale explanation: pEC50 corresponds to minus log10 of a concentration expressed in moles per litre.

The examples below pair each entry with its known result.
- Cc1nnc(C(=O)NC(C)(C)c2nc(C(=O)NCc3ccc(F)cc3)c(O)c(=O)n2C)o1: 8.59
- Cc1ccc(C2CC2)c(-c2ccc3c(c2C)CCCO3)c1[C@H](OC(C)(C)C)C(=O)O: 8.74
- Cc1cc(NS(=O)(=O)CC2CCCCC2)c(C)c(C(OC(C)(C)C)C(=O)O)c1-c1ccc2c(c1)CCCO2 (stereo not shown) [S-I-82, reference compound]: 8.28
- C[C@@H]1CCO[C@H]2Cn3cc(C(=O)NCc4ccc(F)cc4F)c(=O)c(O)c3C(=O)N12 [DTG, dolutegravir, reference compound]: 9.77
- Cc1ccc(C2CC2)c(-c2ccc3c(c2C)CCCO3)c1[C@H](OC1CC1)C(=O)O: 8.00

Data request: Entry Cc1nc2ccccc2c(-c2ccc3c4c(ccnc24)CCO3)c1[C@H](OC(C)(C)C)C(=O)O [BI-224436, reference compound] has what pEC50?
Data returned: 7.85

Data request: Also Cc1ccc(C2CC2)c(-c2ccc3c(c2)CCCO3)c1[C@H](OC(C)(C)C)C(=O)O ?
Data returned: 8.47
